# Test system: SNB-78
# Experiment notes: NCI tumour cell line growth inhibition, 48 h
Activity calls are given as the source filed them. Cut-off read from the data, not from the text of the source: active = GI50 up to about 1.1 µM and inactive = higher.
Quantity name: GI50

Molecule: COc1cc([C@@H]2c3cc4c(cc3[C@@H](NC(=O)c3ccc(C(C)=O)cc3)C3COC(=O)[C@@H]32)OCO4)cc(OC)c1O (stereo not given in full)
Quantity name: GI50
Result: 8.99 µM (inactive)
--
Molecule: CC1C=CC(O)[C@]2(CO)CC3(CCC12)OCCO3 (stereo not given in full)
Quantity name: GI50
Result: > 100 µM (inactive)
--
Molecule: CC(=O)OCC1OC(n2c(=O)n(-c3ccccc3)c(=O)c3cc(Br)cc(Br)c32)C(OC(C)=O)C(OC(C)=O)C1OC(C)=O (stereo not given)
Quantity name: GI50
Result: > 100 µM (inactive)
--
Molecule: C=C1C(=O)C23C(O)CC4C5(C)CCCC4(C(O)OC5)C2C(OC(C)=O)CC1C3O (stereo not given)
Quantity name: GI50
Result: 6.03 µM (inactive)
--
Molecule: Cc1nc(=O)n2c(C)n[nH]c2c1C(=O)O
Quantity name: GI50
Result: > 100 µM (inactive)
